- PROCEDURE DETAILS: Toxicity liver stage against HepG2, at 10uM
- Format: cell-based
- Set-up: test concentration 10 uM, cell line HepG2-A16-CD81EGFP
- PARTICULARS: human, HepG2-A16-CD81EGFP cells; read-out: INHIBITION
Kindly supply the reported cytotoxicity at 10 µM values for the records listed here.
Write it as a number; the unit % goes unstated.

Suppose we examine the compound C[C@H]1C[C@H]2CN(C(=O)c3cccc4c3OCCO4)CC[C@H]2O1 ; what cytotoxicity at 10 µM value has been reported?
-0.91

Suppose we examine the compound CCn1cc(NS(=O)(=O)c2ccc(Br)s2)c(C(=O)NCC(C)C)n1 ; what cytotoxicity at 10 µM value has been reported?
6.86

Suppose we examine the compound Cc1cc(C)c(CNC(=O)NCC(O)c2ccc(Cl)cc2)c(=O)[nH]1 (centres undefined) ; what cytotoxicity at 10 µM value has been reported?
-7.03

Suppose we examine the compound CC(C(=O)N1CCCN(c2ncccc2C#N)CC1)n1ccnc1 (centres undefined) ; what cytotoxicity at 10 µM value has been reported?
-2.6

Suppose we examine the compound OCC(O)CSCc1ccc(Cl)cc1Cl (centres undefined) ; what cytotoxicity at 10 µM value has been reported?
-148

Suppose we examine the compound O=C(c1ccc(-n2cccn2)nc1)N1CCC(Nc2cccnn2)CC1 ; what cytotoxicity at 10 µM value has been reported?
-1.08

Suppose we examine the compound CN1CCOC(CNCC(=O)NCCC2=CCCCC2)C1 (centres undefined) ; what cytotoxicity at 10 µM value has been reported?
-3.57

Suppose we examine the compound CS(=O)(=O)NC1CCCN(C(=O)Nc2ccccc2Cn2cccn2)C1 (centres undefined) ; what cytotoxicity at 10 µM value has been reported?
3.81

Suppose we examine the compound Cc1ccc(C)c(CN2CCCn3nc(CNS(C)(=O)=O)cc3C2)c1 ; what cytotoxicity at 10 µM value has been reported?
-4.64

Suppose we examine the compound CCN(CC)C1CCN(C(=O)Nc2cc(F)c(OC)c(F)c2)C1 (centres undefined) ; what cytotoxicity at 10 µM value has been reported?
4.55

Suppose we examine the compound CC(C)CNC(=O)Cn1cc(C(N)=O)c(-c2ccccc2)n1 ; what cytotoxicity at 10 µM value has been reported?
-6.98

Suppose we examine the compound Cc1nn(C)c(N(C)C)c1CNC1CCc2c(Cl)cccc21 (centres undefined) ; what cytotoxicity at 10 µM value has been reported?
-7.07

Suppose we examine the compound Cc1ccnc(C2CCN(C(=O)CCn3ncc4ccccc43)C2)n1 (centres undefined) ; what cytotoxicity at 10 µM value has been reported?
-22.3

Suppose we examine the compound CCc1noc(CN(CC)Cc2cc3ccc(C)cc3[nH]c2=O)n1 ; what cytotoxicity at 10 µM value has been reported?
0.417

Suppose we examine the compound CN1CCCc2cc(CNC(=O)c3ccncc3)ccc21 ; what cytotoxicity at 10 µM value has been reported?
7.03

Suppose we examine the compound Cc1ccc2c(ccn2CC(=O)NC[C@@H]2CCCN3CCCC[C@H]23)c1 ; what cytotoxicity at 10 µM value has been reported?
0.097

Suppose we examine the compound CCN1CCN(Cc2c(-c3ccco3)[nH]c3ncccc23)CC1 ; what cytotoxicity at 10 µM value has been reported?
-5.91

Suppose we examine the compound CN(C)CCNC(=O)Cc1cccc(I)c1 ; what cytotoxicity at 10 µM value has been reported?
-3.23

Suppose we examine the compound Cn1cc(CNc2nc3cc(Cl)ccc3n2C)cn1 ; what cytotoxicity at 10 µM value has been reported?
16.8

Suppose we examine the compound COCCC1(CO)CCCN(Cc2ccc(C#N)cc2)C1 (centres undefined) ; what cytotoxicity at 10 µM value has been reported?
-156

Suppose we examine the compound Cc1n[nH]c(C)c1CC(=O)NCc1ccccc1Cl ; what cytotoxicity at 10 µM value has been reported?
9.87

Suppose we examine the compound COc1ccccc1-c1cc(C(F)(F)F)c2c(C)nn(CC(=O)O)c2n1 ; what cytotoxicity at 10 µM value has been reported?
5.25

Suppose we examine the compound COc1ccc(CN(CCC#N)CCN2CCOCC2)cc1OC ; what cytotoxicity at 10 µM value has been reported?
-5.79

Suppose we examine the compound Cn1ccnc1COc1ccc(NC(=O)CCC2CCCO2)cc1 (centres undefined) ; what cytotoxicity at 10 µM value has been reported?
4.34

Where these numbers come from: ChEMBL document CHEMBL4513216
